Tested on: LXRb homodimer (NR concentration 270 nM)
Assay: PBM binding z-score (relative to random genomic background probes); higher = stronger binding; sequences stand for … in GC…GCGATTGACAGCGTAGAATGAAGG
reported-endpoint: PBM binding z-score

Observe how each entry below is paired with its result.
TCTCGGAGGACACGATGGTCAGAGCTTTCCAGAG; -1.39
TCTGCTAGGTCAGTTGGTCAGTTAACGAGCTGCC; 0.405
AGAATGCGGTTATTAAGATCAGGGAATTGCGGTC; -0.728
TCTTGTAGATCGGCAGGTTAAGAAAGCTGGCCAA; -0.432
TCTATTAGTCGAAGGGCAACCGACGAGTCCGTTT; 0.475

I am curious: what PBM binding z-score value has been reported for `TCGCGGAGGACACGAAGGTCAGAGCTTTCCAGAG` ?
-1.29

I am curious: what PBM binding z-score value has been reported for `CGTCCAAGGTCAAGGACAGTGAAAGAGACTCGAA` ?
0.401

I am curious: what PBM binding z-score value has been reported for `TTACCAAGGTGAGCTGAGCTCGTTGATCCAACTC` ?
-1.3
